Test: Inhibitory activity against the wheat germ DNA topoisomerase I
Listed compounds paired with reported IC50
Write it as a number; the unit µM goes unstated.

smiles_str=c1coc(-c2cc(-c3cccs3)nc(-c3cccs3)c2)c1 value_observed=50

Next up:
Can you look up the measured IC50 of c1coc(-c2ccnc(-c3cccs3)c2)c1 for me?
400

----------
Experiment: Inhibitory activity against the calf thymus DNA topoisomerase I
result.type: pIC50
pIC50 here is simply -log10 of the concentration when that concentration is written in mol/L.

I am curious: what pIC50 value has been reported for C(=C\c1ccco1)/c1cc(-c2ccco2)cc(-c2cccs2)n1 ?
3.70

----------
Assay: Inhibitory activity against the wheat germ DNA topoisomerase I
result.type: IC50

Data request, read-out IC50, for C(=C\c1ccco1)/c1cc(-c2ccco2)cc(-c2cccs2)n1
< 10 µM
